The measurements presented in this section are drawn from a melting point compilation (Tetko et al.; mined from patent text by program, amines drawn as free bases though some values may be those of a salt).

The following molecules are listed with their measured melting point values.

Name the recorded melting point for `CC(C)c1nsc(N=C(F)N(C)C)c1C#N` .
100 to 102 °C

Name the recorded melting point for O=C(O)C1=Cc2cc(C#Cc3ccccc3)ccc2NC1C(F)(F)F (stereo unspecified) .
218 to 219 °C

Name the recorded melting point for `COc1ccc2c(c1)c1c3c(c(-c4ccccc4)cc1n2CCCCCCO)C(=O)NC3=O` .
170 to 173 °C

Name the recorded melting point for `C=CCOC(=O)c1ccc(O)c(C23CC4CC(CC(C4)C2)C3)c1F` .
219 to 222 °C

Name the recorded melting point for `CN1CCC(c2cccc3ccc(C(=O)NCCCc4ccccc4)cc23)CC1` .
47 to 50 °C

Name the recorded melting point for `CCCS(=O)(=O)Cc1ccc(C(=O)Nc2ccc3cc(CN4CCCC4)cnc3c2C)cc1` .
191 °C

Name the recorded melting point for `O=C(O)C=Cc1ccc(-c2cnc(CSCCOc3ccccc3)o2)cc1` .
150 to 153 °C

Name the recorded melting point for COc1ccc(OC)c2c1COC(C(=O)O)C2 (stereo unspecified) .
164 to 166 °C

Name the recorded melting point for `O=C(CCl)c1ccc2c(c1)CN(C(=O)C(F)(F)F)CC2` .
120 to 122 °C

Name the recorded melting point for Fc1ccc(C2=NOC(CN=C=S)C2)cc1 (stereo unspecified) .
59 to 61 °C

Name the recorded melting point for `CCCN(C)C(=O)N(C)C(=O)Nc1ccccc1` .
63 to 64 °C

Name the recorded melting point for O=C(O)c1cccc(CN2CCC(N3C(=O)Nc4ccccc4C3c3ccccc3)CC2)c1 (stereo unspecified) .
> 250 °C

Name the recorded melting point for COc1ccc(CCCC2SC(=O)NC2=O)c2ccc(=O)n(C)c12 (stereo unspecified) .
172 to 175 °C

Name the recorded melting point for `CCCCC(=O)Oc1c(-c2ccc(-c3ccccc3)cc2)nc2ccc(F)cc2c1C(=O)O` .
214 to 217 °C

Name the recorded melting point for `Cc1cc(-c2ccc(Cl)cc2)n(-c2ccc(S(N)(=O)=O)cc2)c1` .
196 to 198 °C

Name the recorded melting point for `Cc1nc(Nc2ccccc2)sc1-c1nc2ccccc2c(=O)n1-c1ccccc1Cl` .
228 to 229 °C

Name the recorded melting point for `Oc1c(C2=CCCCC2)ccc2ccccc12` .
82 to 83 °C

Name the recorded melting point for COC(COC(C)=O)C1=CCC2C3CCC4=CC(=O)CCC4(C)C3CCC12C (stereo unspecified) .
115 to 157 °C

Name the recorded melting point for CC(C)(C)OC(=O)CCc1csc(CCNc2nc(N)c3ncn(C4OC(CO)C(O)C4O)c3n2)c1 (stereo unspecified) .
120 to 124 °C

Name the recorded melting point for `O=C(Nc1ccc(CBr)c(C(F)(F)F)c1)C(F)(F)F` .
119 to 120 °C
